# subject of test: human seritonin transporter (Homo sapiens, UniProt P31645)
# Sequence (P31645 whole entry): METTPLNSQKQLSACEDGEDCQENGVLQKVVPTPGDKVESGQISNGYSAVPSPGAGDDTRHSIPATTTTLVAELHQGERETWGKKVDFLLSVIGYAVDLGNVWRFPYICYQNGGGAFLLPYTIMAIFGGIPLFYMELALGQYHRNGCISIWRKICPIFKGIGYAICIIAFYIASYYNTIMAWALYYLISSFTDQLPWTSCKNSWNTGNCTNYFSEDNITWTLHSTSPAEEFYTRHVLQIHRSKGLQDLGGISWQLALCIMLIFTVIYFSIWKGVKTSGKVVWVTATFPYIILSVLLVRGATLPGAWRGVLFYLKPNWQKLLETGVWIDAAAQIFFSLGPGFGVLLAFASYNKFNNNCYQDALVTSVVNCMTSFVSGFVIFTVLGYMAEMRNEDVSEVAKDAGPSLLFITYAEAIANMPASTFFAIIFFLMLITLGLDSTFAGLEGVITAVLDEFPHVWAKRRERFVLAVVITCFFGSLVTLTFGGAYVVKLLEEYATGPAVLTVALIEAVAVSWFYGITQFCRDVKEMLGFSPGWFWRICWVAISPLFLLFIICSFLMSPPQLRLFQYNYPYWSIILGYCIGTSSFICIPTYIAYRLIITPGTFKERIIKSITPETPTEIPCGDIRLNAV
endpoint label: Ki (µM)
Kindly provide the numeric value in µM only, without the unit symbol.

Solved entries:
Fc1cccc(F)c1OC(C1=CCCC1)[C@@H]1CNCCO1 (mixture of isomers) [Example 146]
3.7
CCCOc1cccc(F)c1O[C@@H](c1ccccc1)[C@@H]1CNCCO1 [Example 171]
1.04
CCOc1ccccc1O[C@@H](c1ccccn1)[C@@H]1CNCCO1 [Example 21]
2.5
Cc1coc(C(Oc2ccccc2C2CC2)[C@@H]2CNCCO2)n1 (stereo partly shown) [Example 190]
4.34
Fc1cccc(Cl)c1O[C@@H](c1ccccc1)[C@@H]1CNCCO1 [Example 60]
0.078

[Q] What measured Ki is associated with CC(C)c1ccccc1O[C@@H](c1ccccn1)[C@@H]1CNCCO1 [Example 103] on human seritonin transporter (Homo sapiens, UniProt P31645)?
[A] 6.07

[Q] What measured Ki is associated with CCOc1ccccc1OC(c1cccc(F)c1)C1CNCCO1 (stereo in doubt) [Example 70] on human seritonin transporter (Homo sapiens, UniProt P31645)?
[A] 0.818

[Q] What measured Ki is associated with COc1c(F)cccc1OC(c1ccccc1)[C@@H]1CNCCO1 (stereo partly shown) [Example 168] on human seritonin transporter (Homo sapiens, UniProt P31645)?
[A] 0.791

[Q] What measured Ki is associated with CC(C)Oc1cccc(F)c1O[C@@H](c1ccccc1)[C@@H]1CNCCO1 [Example 165] on human seritonin transporter (Homo sapiens, UniProt P31645)?
[A] 0.351

[Q] What measured Ki is associated with Fc1cccc(C2CC2)c1O[C@@H](c1ccccc1)C1CNCCO1 (stereo in doubt) [Example 184] on human seritonin transporter (Homo sapiens, UniProt P31645)?
[A] 0.46

[Q] What measured Ki is associated with c1ccc([C@H](Oc2ccccc2CC2CC2)[C@@H]2CNCCO2)cc1 [Example 61] on human seritonin transporter (Homo sapiens, UniProt P31645)?
[A] 6.6

[Q] What measured Ki is associated with Fc1cccc(F)c1O[C@@H](c1ccccn1)[C@@H]1CNCCO1 [Example 160] on human seritonin transporter (Homo sapiens, UniProt P31645)?
[A] 6.5

[Q] What measured Ki is associated with CCOc1ccccc1O[C@H](c1cccnc1)[C@H]1CNCCO1 [Example 90] on human seritonin transporter (Homo sapiens, UniProt P31645)?
[A] 5.05

[Q] What measured Ki is associated with CCCc1ncccc1O[C@@H](c1ccccc1)[C@@H]1CNCCO1 [Example 135] on human seritonin transporter (Homo sapiens, UniProt P31645)?
[A] 4.48

[Q] What measured Ki is associated with c1ccc(COc2ccccc2O[C@@H](c2ccccn2)[C@@H]2CNCCO2)cc1 [Example 102] on human seritonin transporter (Homo sapiens, UniProt P31645)?
[A] 5.74

[Q] What measured Ki is associated with FC(F)(F)Oc1ccccc1O[C@@H](c1ccccn1)[C@@H]1CNCCO1 [Example 129] on human seritonin transporter (Homo sapiens, UniProt P31645)?
[A] 4.47

[Q] What measured Ki is associated with c1ccc([C@H](Oc2cccnc2C2CC2)[C@@H]2CNCCO2)cc1 [Example 150] on human seritonin transporter (Homo sapiens, UniProt P31645)?
[A] 2.03

[Q] What measured Ki is associated with Fc1ccc(OC(c2cccnc2)C2CNCCO2)c(Cl)c1 (stereo in doubt) [Example 19] on human seritonin transporter (Homo sapiens, UniProt P31645)?
[A] 0.074

[Q] What measured Ki is associated with c1ccc([C@H](Oc2cccc3c2CCC3)[C@@H]2CNCCO2)nc1 [Example 110] on human seritonin transporter (Homo sapiens, UniProt P31645)?
[A] 0.356
